target: FGFR2 (Homo sapiens); construct: made in house; host or cells: E. coli host derived from BL21, infected with T7 phage; test: Kinase binding assay (Kd), FGFR2; conditions: 11-point 3-fold dilution, qPCR readout
Sequence (P21802 22-821): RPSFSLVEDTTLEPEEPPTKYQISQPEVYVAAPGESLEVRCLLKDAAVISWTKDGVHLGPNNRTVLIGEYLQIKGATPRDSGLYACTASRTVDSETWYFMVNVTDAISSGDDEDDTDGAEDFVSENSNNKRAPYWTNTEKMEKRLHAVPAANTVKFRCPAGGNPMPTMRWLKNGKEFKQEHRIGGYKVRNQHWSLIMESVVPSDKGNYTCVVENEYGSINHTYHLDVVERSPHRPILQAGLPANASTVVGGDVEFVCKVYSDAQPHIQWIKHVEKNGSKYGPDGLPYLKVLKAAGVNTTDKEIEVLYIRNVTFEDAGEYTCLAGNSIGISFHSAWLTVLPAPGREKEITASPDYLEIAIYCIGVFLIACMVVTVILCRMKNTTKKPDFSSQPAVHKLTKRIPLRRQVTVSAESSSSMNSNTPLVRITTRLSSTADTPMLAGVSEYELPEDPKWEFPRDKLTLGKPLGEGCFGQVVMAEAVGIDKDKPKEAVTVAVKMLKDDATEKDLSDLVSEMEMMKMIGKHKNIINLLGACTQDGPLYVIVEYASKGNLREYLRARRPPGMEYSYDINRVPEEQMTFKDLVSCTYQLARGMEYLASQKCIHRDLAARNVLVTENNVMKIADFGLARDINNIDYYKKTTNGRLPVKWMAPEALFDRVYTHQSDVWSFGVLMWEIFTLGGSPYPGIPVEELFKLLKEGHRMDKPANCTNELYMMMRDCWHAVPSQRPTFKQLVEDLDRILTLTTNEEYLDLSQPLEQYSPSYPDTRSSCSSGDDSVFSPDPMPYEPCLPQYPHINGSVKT
# Kd per entry
Write the number in nM without appending the unit.

Molecule	Kd / nM
Cn1cc(-c2nc(Nc3ccc(S(=N)(=O)C4CC4)cc3)ncc2Cl)c2ccccc21 (stereo not drawn)	170
Cc1cnc(Nc2ccc(S(C)(=N)=O)cc2)nc1-c1c[nH]c2ccccc12 (stereo not drawn)	6

# context switch: different molecule, same Kd
Prompt: API: value(readout=Kd, system=FGFR2 (Homo sapiens)) for record `COc1cc(N2CCS(=N)(=O)CC2)ccc1Nc1nccc(-n2ccc3ccccc32)n1`
Response: 9000

----------
biological target: FGFR1 (Homo sapiens, UniProt P11362); construct: made in house; host or cells: E. coli host derived from BL21, infected with T7 phage; test: Kinase binding assay (Kd), FGFR1; conditions: 11-point 3-fold dilution, qPCR readout
Sequence (P11362 22-822): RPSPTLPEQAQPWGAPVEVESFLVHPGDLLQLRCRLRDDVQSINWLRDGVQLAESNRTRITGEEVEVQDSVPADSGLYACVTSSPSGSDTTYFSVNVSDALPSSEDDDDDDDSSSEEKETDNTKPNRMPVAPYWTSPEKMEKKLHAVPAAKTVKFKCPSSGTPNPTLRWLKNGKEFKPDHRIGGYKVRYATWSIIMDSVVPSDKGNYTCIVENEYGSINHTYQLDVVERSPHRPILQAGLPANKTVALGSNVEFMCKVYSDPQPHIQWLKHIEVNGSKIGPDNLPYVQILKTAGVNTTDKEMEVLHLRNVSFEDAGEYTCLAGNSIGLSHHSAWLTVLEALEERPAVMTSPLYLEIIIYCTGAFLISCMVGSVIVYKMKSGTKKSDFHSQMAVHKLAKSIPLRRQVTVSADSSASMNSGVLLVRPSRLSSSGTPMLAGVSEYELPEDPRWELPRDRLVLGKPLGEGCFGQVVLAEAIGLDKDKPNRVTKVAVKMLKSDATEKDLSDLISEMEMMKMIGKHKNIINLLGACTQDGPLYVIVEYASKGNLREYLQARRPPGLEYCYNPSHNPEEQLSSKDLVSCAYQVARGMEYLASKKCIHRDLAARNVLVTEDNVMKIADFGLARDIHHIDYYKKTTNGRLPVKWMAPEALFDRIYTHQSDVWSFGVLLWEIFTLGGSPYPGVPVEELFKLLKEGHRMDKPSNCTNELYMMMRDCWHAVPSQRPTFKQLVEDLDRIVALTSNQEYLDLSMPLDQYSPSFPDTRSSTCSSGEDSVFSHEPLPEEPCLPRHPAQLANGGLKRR
Quantity Kind: log10(Kd) (log10 of the value in nM)
Hi team, quick reminder: these entries are log10 of Kd (nM).

Molecule	Result Number
CN1CCS(=O)(=Nc2ccc(Nc3nccc(-n4ccc5ccccc54)n3)cc2)CC1 [Example 16]	3.34

# context switch: different molecule, same log10(Kd)
Prompt: I have this molecule here, CS(C)(=O)=Nc1ccc(Nc2nccc(-n3ccc4ccccc43)n2)cc1 [Example 13] , and I need its recorded log10(Kd).
Response: 2.54

----------
biological target: FGFR2 (Homo sapiens); construct: made in house; host or cells: E. coli host derived from BL21, infected with T7 phage; test: Kinase binding assay (Kd), FGFR2; details: 11-point 3-fold dilution, qPCR readout
Quantity Kind: Kd (nM)
Write the number in nM without appending the unit.

Study these solved cases before continuing.
Cc1cc(Nc2ncc(C)c(-c3c[nH]c4ccccc34)n2)ccc1N=S(C)(C)=O 7
C=CC(=O)Nc1ccc2c(c1)c(C)cn2-c1nc(Nc2ccc(N=S(C)(C)=O)cc2)ncc1Cl 6
CCN1CCS(=O)(=Nc2ccc(Nc3ncc(Cl)c(-c4c[nH]c5ccccc45)n3)c(OC)c2)CC1 170

Prompt: I have this compound here, `Cc1cnc(Nc2ccc(N=S(C)(C)=O)cc2)nc1-n1ccc2ccccc21` , and I need its recorded Kd.
Response: 110

----------
molecular target: FGFR1-BCR Ba/F3 cells (Homo sapiens, UniProt P11362); construct: Ba/F3 FGFR1; FGFR1-BCR; Advanced Cellular Dynamics, (Seattle, WA); fused on or other part: P11274 (Breakpoint cluster region protein); experiment: Ba/F3 cell viability assay, FGFR1; format: cell-based; conditions: FGFR1-BCR Ba/F3, 48 hours, Cell Titer-Glo 2.0; read-out: Ba/F3 Cells FGFR1 (IC50 nM)
Sequence (P11362 whole entry, change not shown, the tested form may be a part): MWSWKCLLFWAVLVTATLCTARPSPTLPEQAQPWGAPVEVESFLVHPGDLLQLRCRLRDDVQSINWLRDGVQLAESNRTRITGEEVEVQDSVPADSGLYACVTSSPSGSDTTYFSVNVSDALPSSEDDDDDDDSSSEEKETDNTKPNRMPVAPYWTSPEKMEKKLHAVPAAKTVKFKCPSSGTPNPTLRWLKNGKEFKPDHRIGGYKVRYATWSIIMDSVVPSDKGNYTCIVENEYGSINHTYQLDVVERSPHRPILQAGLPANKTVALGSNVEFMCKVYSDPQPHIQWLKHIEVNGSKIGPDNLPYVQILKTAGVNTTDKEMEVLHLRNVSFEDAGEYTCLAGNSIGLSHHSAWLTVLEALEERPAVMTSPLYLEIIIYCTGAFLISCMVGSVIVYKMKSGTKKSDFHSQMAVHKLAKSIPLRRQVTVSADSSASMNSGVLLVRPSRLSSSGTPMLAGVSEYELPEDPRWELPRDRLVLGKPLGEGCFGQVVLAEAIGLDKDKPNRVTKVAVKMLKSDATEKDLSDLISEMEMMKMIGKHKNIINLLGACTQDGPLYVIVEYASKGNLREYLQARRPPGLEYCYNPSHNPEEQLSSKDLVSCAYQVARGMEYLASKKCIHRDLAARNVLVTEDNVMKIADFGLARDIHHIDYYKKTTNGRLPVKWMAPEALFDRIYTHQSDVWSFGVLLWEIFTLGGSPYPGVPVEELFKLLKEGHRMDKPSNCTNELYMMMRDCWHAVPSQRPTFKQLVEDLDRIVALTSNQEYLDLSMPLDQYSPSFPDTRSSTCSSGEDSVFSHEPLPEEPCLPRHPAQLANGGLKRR
Quantity Kind: GI50

Study these solved cases before continuing.
Cc1cnc(Nc2ccc(N=S(C)(C)=O)c(OCCN3CCOCC3)c2)nc1-c1c[nH]c2ccccc12 11 nM
C=CC(=O)Nc1ccc2c(-c3nc(Nc4ccc(N=S(C)(C)=O)cc4)ncc3Cl)cn(C)c2c1 1 nM
COc1cc(Nc2ncc(C)c(-c3c[nH]c4c(C)cccc34)n2)ccc1N=S(C)(C)=O 2 nM

# context switch: different compound, same GI50
Prompt: I have this compound here, `C=CC(=O)Nc1ccc2c(c1)c(C)cn2-c1nc(Nc2ccc(N=S(C)(C)=O)c(OC)c2)ncc1Cl` , and I need its recorded GI50.
Response: 3 nM

----------
Target: FGFR1 (Homo sapiens, UniProt P11362)
Construct: made in house; host or cells: E. coli host derived from BL21, infected with T7 phage
Assay: Kinase binding assay (Kd), FGFR1
Conditions: 11-point 3-fold dilution, qPCR readout
Protocol: Kinase-tagged T7 phage strains were prepared in an E. coli host derived from the BL21 strain. E. coli were grown to log-phase and infected with T7 phage and incubated with shaking at 32° C. until lysis. The lysates were centrifuged and filtered to remove cell debris. […] Test compounds were prepared as 111X stocks in 100% DMSO. Kds were determined using an 11-point 3-fold compound dilution series with three DMSO control points. […] The kinase concentration in the eluates was measured by qPCR. […]
Quantity Kind: Kd
# output: number + unit

Molecule	Quantity Kind	Result
C=CC(=O)Nc1cccc2c(-c3nc(Nc4ccc(S(C)(=N)=O)cc4)ncc3Cl)c[nH]c12 (stereo not shown) [Example 91]	Kd	19 nM
C=CC(=O)Nc1cc2ccn(-c3nc(Nc4ccc(N=S(C)(C)=O)cc4)ncc3Cl)c2cc1C [Example 85]	Kd	330 nM
Cc1cnc(Nc2ccc(N=S(C)(C)=O)cc2)nc1-c1c[nH]c2cc(F)ccc12 [Example 29]	Kd	15 nM

Prompt: I have this molecule here, Cc1ccc2c(-c3nc(Nc4ccc(N=S(C)(C)=O)cc4)ncc3C)c[nH]c2c1 [Example 28] , and I need its recorded Kd.
Response: 27 nM

Prompt: I have this molecule here, COc1cc(Nc2ncc(C)c(-c3c[nH]c4ccccc34)n2)ccc1N=S(C)(C)=O [Example 26] , and I need its recorded Kd.
Response: 42 nM

Prompt: I have this molecule here, C=CC(=O)Nc1ccc2c(ccn2-c2nc(Nc3ccc(S(C)(=N)=O)cc3)ncc2Cl)c1 (stereo not shown) [Example 70] , and I need its recorded Kd.
Response: 230 nM

Prompt: I have this molecule here, COc1c(N=S(C)(C)=O)cccc1Nc1ncc(Cl)c(-c2c[nH]c3ccccc23)n1 [Example 5] , and I need its recorded Kd.
Response: 3300 nM

Prompt: I have this molecule here, COc1cc(N2CCS(=N)(=O)CC2)ccc1Nc1ncc(Cl)c(-n2ccc3ccccc32)n1 [Example 44] , and I need its recorded Kd.
Response: 2200 nM

Prompt: I have this molecule here, C=CC(=O)Nc1ccc2c(c1)c(C)cn2-c1nc(Nc2ccc(N=S(C)(C)=O)c(F)c2)ncc1C#N [Example 62] , and I need its recorded Kd.
Response: 79 nM

Prompt: I have this molecule here, C=CC(=O)Nc1cc(N=S(C)(C)=O)ccc1Nc1ncc(C)c(-c2c[nH]c3ccccc23)n1 [Example 20] , and I need its recorded Kd.
Response: 37 nM

Prompt: I have this molecule here, CCC(=O)Nc1cccc2c1ccn2-c1nc(Nc2ccc(N3CCS(=N)(=O)CC3)cc2)ncc1Cl [Example 83] , and I need its recorded Kd.
Response: 86 nM

Prompt: I have this molecule here, CCN1CCS(=O)(=Nc2ccc(Nc3ncc(Cl)c(-c4c[nH]c5ccccc45)n3)c(OC)c2)CC1 [Example 39] , and I need its recorded Kd.
Response: 58 nM

Prompt: I have this molecule here, COc1cc(Nc2ncc(C)c(-c3c[nH]c4c(C)cccc34)n2)ccc1N=S(C)(C)=O [Example 31] , and I need its recorded Kd.
Response: 1 nM

Prompt: I have this molecule here, Cc1cnc(Nc2ccc(S(C)(=N)=O)cc2)nc1-c1c[nH]c2ccccc12 (stereo not shown) [Example 48] , and I need its recorded Kd.
Response: 7 nM

Prompt: I have this molecule here, CS(C)(=O)=Nc1ccc(Nc2cc(-c3c[nH]c4ccccc34)ncn2)cc1 [Example 12] , and I need its recorded Kd.
Response: 350 nM

Prompt: I have this molecule here, N=S1(=O)CCN(c2ccc(Nc3ncc(Cl)c(-n4ccc5c(N)cccc54)n3)cc2)CC1 [Example 82] , and I need its recorded Kd.
Response: 59 nM

----------
biological target: FGFR3 (Homo sapiens, UniProt P22607); construct: made in house; host or cells: E. coli host derived from BL21, infected with T7 phage; experiment: Kinase binding assay (Kd), FGFR3; conditions: 11-point 3-fold dilution, qPCR readout
Sequence (P22607 23-806): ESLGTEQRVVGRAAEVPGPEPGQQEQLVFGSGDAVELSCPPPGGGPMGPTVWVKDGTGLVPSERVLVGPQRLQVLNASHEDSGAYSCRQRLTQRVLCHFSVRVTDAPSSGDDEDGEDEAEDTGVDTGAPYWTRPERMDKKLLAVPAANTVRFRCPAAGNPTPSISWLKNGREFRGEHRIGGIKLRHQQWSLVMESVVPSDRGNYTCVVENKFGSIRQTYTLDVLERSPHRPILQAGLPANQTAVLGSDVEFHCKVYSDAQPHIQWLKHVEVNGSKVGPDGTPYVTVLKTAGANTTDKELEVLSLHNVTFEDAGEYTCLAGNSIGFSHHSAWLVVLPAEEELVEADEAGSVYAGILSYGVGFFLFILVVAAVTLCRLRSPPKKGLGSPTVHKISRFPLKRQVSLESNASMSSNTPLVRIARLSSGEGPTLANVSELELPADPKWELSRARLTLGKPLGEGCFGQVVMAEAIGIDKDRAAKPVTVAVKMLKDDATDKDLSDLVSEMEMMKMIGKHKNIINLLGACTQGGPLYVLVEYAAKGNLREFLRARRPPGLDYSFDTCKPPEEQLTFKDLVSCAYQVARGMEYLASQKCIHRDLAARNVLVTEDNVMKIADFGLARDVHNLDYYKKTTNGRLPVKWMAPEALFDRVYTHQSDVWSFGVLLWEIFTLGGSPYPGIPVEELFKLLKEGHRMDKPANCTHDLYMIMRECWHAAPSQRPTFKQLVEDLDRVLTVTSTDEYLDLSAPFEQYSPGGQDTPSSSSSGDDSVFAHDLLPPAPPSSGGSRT
# log10 of Kd per entry
Hi team, quick reminder: these entries are log10 of Kd (nM).

Prompt: I have this molecule here, `CS(C)(=O)=Nc1ccc(Nc2ncc(Cl)c(-n3ccc4cc(NC(=O)C5CC5)ccc43)n2)cc1` , and I need its recorded log10 of Kd.
Response: 2.53

Prompt: I have this molecule here, `N=S1(=O)CCN(c2ccc(Nc3ncc(F)c(-c4c[nH]c5ccccc45)n3)cc2)CC1` , and I need its recorded log10 of Kd.
Response: 1.18

Prompt: I have this molecule here, CN=S(C)(=O)c1ccc(Nc2ncc(Cl)c(-c3c[nH]c4ccccc34)n2)c(OC)c1 (stereo not shown) , and I need its recorded log10 of Kd.
Response: 2.46

Prompt: I have this molecule here, `Cc1ccc2c(-c3nc(Nc4ccc(N=S(C)(C)=O)cc4)ncc3C)c[nH]c2c1` , and I need its recorded log10 of Kd.
Response: 1.64

Prompt: I have this molecule here, `C=CC(=O)Nc1cccc2c1ccn2-c1nc(Nc2ccc(N=S(C)(C)=O)cc2)ncc1Cl` , and I need its recorded log10 of Kd.
Response: 2.20

Prompt: I have this molecule here, `C=CC(=O)Nc1ccc2c(cnn2-c2nc(Nc3ccc(N=S(C)(C)=O)cc3)ncc2Cl)c1` , and I need its recorded log10 of Kd.
Response: 1.66

Prompt: I have this molecule here, `CS(C)(=O)=Nc1ccc(Nc2ncc(Cl)c(-c3c[nH]c4ccccc34)n2)cc1` , and I need its recorded log10 of Kd.
Response: 1.46

Prompt: I have this molecule here, COc1cc(S(C)(=N)=O)ccc1Nc1ncc(Cl)c(-c2c[nH]c3ccccc23)n1 (stereo not shown) , and I need its recorded log10 of Kd.
Response: 1.95

Prompt: I have this molecule here, `Cc1cnc(Nc2ccc(N=S(C)(C)=O)c(OCCN3CCOCC3)c2)nc1-c1c[nH]c2ccccc12` , and I need its recorded log10 of Kd.
Response: 0.30

Prompt: I have this molecule here, `COc1cc(N2CCS(=N)(=O)CC2)ccc1Nc1nccc(-n2ccc3ccccc32)n1` , and I need its recorded log10 of Kd.
Response: 3.69

Prompt: I have this molecule here, C=CC(=O)Nc1ccc2c(ccn2-c2nc(Nc3ccc(S(C)(=N)=O)cc3)ncc2C)c1 (stereo not shown) , and I need its recorded log10 of Kd.
Response: 1.61

Prompt: I have this molecule here, C=CC(=O)Nc1ccc2c(ccn2-c2nc(Nc3ccc(S(C)(=N)=O)cc3OC)ncc2C)c1 (stereo not shown) , and I need its recorded log10 of Kd.
Response: 3.04

Prompt: I have this molecule here, `CC(=O)c1cn(-c2nc(Nc3ccc(N=S(C)(C)=O)cc3)ncc2C)c2ccccc12` , and I need its recorded log10 of Kd.
Response: 4.43

Prompt: I have this molecule here, `Cc1cnc(Nc2ccc(N=S(C)(C)=O)cc2)nc1-c1c[nH]c2ccccc12` , and I need its recorded log10 of Kd.
Response: 2.57

Prompt: I have this molecule here, `COc1cc(Nc2ncc(C)c(-c3c[nH]c4ccccc34)n2)ccc1N=S(C)(C)=O` , and I need its recorded log10 of Kd.
Response: 1.00

Prompt: I have this molecule here, C=CC(=O)Nc1cccc2c(-c3nc(Nc4ccc(S(C)(=N)=O)cc4)ncc3Cl)c[nH]c12 (stereo not shown) , and I need its recorded log10 of Kd.
Response: 1.68
